For each record, write down the corresponding protease activity, referring to reference formulation at time 0.
target: Savinase Ultra 16.0L (Lederbergia lenta, UniProt P29600); construct: purchased Sigma-Aldrich; experiment: protease storage stability in liquid formulation (Suc-AAPF-pNA substrate); assay type: biochemical; settings: base formulation III., 1.5 wt % component (a), storage at 37° C., 28 d
Give the value as a plain number.

Q: Please give the measured protease activity, referring to reference formulation at time 0 for this compound: CCOC(=O)CC(CC(=O)OCC)(OC(C)=O)C(=O)OCC [A.5, Acetyltriethylcitrate]
A: 71

Q: Data request, read-out protease activity, referring to reference formulation at time 0, for CCCCOC(=O)CC(CC(=O)OCCCC)(OC(C)=O)C(=O)OCCCC [A.4, Acetyltributylcitrate]
A: 81

Q: Request the reported protease activity, referring to reference formulation at time 0 associated with CCOC(=O)CC(O)(CC(=O)OCC)C(=O)OCC [A.1, Triethylcitrate]
A: 74

Q: Reported protease activity, referring to reference formulation at time 0, compound CCCOC(=O)CC(O)(CC(=O)OCCC)C(=O)OCCC [A.2, Tripropylcitrate] : ____
A: 83

* * *

Biological target: Savinase Ultra 16.0L (Lederbergia lenta)
Construct: purchased Sigma-Aldrich
Sequence (P29600 1-269): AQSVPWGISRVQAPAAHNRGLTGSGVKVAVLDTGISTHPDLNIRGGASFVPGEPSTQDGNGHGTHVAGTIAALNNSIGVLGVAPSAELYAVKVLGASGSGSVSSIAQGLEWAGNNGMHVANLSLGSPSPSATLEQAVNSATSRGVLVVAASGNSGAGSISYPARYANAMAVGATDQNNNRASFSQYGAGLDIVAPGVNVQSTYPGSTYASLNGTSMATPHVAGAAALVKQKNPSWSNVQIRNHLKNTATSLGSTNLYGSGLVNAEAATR
Assay: protease storage stability in liquid formulation (Suc-AAPF-pNA substrate)
Type: biochemical
Details: base formulation II., 1.5 wt % component (a), storage at 37° C., 14 d
Exercise: state measured protease activity, referring to reference formulation at time 0 for each of the compounds provided.
Please respond with just the number, no unit label.

Q: I would be grateful if you could share the reported protease activity, referring to reference formulation at time 0 for CCCOC(=O)CC(O)(CC(=O)OCCC)C(=O)OCCC [A.2, Tripropylcitrate] .
A: 91

Q: I would be grateful if you could share the reported protease activity, referring to reference formulation at time 0 for CCOC(=O)CC(O)(CC(=O)OCC)C(=O)OCC [A.1, Triethylcitrate] .
A: 90

Q: Query: protease activity, referring to reference formulation at time 0; subject: O=C(CC(O)(CC(=O)OCc1ccccc1)C(=O)OCc1ccccc1)OCc1ccccc1 [A.8, Tribenzylcitrate]
A: 90

Q: # query: protease activity, referring to reference formulation at time 0 of entry CCCCOC(=O)CC(CC(=O)OCCCC)(OC(C)=O)C(=O)OCCCC [A.4, Acetyltributylcitrate]
A: 90

* * *

Target: Savinase Ultra 16.0L (Lederbergia lenta, UniProt P29600)
Construct: purchased Sigma-Aldrich
Sequence (P29600 1-269): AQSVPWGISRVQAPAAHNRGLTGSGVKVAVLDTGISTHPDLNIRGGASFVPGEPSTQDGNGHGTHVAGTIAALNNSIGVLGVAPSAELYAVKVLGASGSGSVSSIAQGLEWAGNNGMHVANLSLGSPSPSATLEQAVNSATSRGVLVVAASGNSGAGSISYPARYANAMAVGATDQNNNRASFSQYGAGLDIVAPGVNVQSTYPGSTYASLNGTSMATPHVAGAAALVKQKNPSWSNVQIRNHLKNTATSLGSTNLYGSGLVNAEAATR
Experiment: protease storage stability in liquid formulation (Suc-AAPF-pNA substrate)
Format: biochemical
Conditions: base formulation I., 1.5 wt % component (a), storage at 37° C., 14 d
Please go through the items and note down their protease activity, referring to reference formulation at time 0.
Please give the numeric answer without any surrounding text.

Q: protease activity, referring to reference formulation at time 0 lookup needed for CCOC(=O)CC(CC(=O)OCC)(OC(C)=O)C(=O)OCC [A.5, Acetyltriethylcitrate] , thanks.
A: 84

Q: Field request: protease activity, referring to reference formulation at time 0 | item: CCCCOC(=O)CC(CC(=O)OCCCC)(OC(C)=O)C(=O)OCCCC [A.4, Acetyltributylcitrate]
A: 90

Q: Report protease activity, referring to reference formulation at time 0 for CCCOC(=O)CC(O)(CC(=O)OCCC)C(=O)OCCC [A.2, Tripropylcitrate] please.
A: 90

Q: I am curious: what protease activity, referring to reference formulation at time 0 value has been reported for CCOC(=O)CC(O)(CC(=O)OCC)C(=O)OCC [A.1, Triethylcitrate] ?
A: 89

* * *

Target: Savinase Ultra 16.0L (Lederbergia lenta)
Construct: purchased Sigma-Aldrich
Sequence (P29600 1-269): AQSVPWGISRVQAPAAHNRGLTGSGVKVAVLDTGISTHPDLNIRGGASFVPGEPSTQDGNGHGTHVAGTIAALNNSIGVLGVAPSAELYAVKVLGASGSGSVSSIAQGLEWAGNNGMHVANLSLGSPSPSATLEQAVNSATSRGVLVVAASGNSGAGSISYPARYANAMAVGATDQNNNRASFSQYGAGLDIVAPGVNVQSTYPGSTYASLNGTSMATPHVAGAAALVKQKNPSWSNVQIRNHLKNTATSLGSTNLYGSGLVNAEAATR
Experiment: protease storage stability in liquid formulation (Suc-AAPF-pNA substrate)
Format: biochemical
Settings: base formulation II., 1.5 wt % component (a), storage at 37° C., 7 d
I'd be grateful if you could share measured protease activity, referring to reference formulation at time 0 for these entries.

Q: I'd like to know its protease activity, referring to reference formulation at time 0. The compound in question is O=C(CC(O)(CC(=O)OCc1ccccc1)C(=O)OCc1ccccc1)OCc1ccccc1 [A.8, Tribenzylcitrate]
A: 93

Q: Need protease activity, referring to reference formulation at time 0, item CCCOC(=O)CC(O)(CC(=O)OCCC)C(=O)OCCC [A.2, Tripropylcitrate]
A: 96

Q: Param item = CCOC(=O)CC(O)(CC(=O)OCC)C(=O)OCC [A.1, Triethylcitrate] ; retrieve measured protease activity, referring to reference formulation at time 0.
A: 96

Q: Given CCCCOC(=O)CC(CC(=O)OCCCC)(OC(C)=O)C(=O)OCCCC [A.4, Acetyltributylcitrate] , state its recorded protease activity, referring to reference formulation at time 0.
A: 95

* * *

Target: Savinase Ultra 16.0L (Lederbergia lenta)
Construct: purchased Sigma-Aldrich
Sequence (P29600 1-269): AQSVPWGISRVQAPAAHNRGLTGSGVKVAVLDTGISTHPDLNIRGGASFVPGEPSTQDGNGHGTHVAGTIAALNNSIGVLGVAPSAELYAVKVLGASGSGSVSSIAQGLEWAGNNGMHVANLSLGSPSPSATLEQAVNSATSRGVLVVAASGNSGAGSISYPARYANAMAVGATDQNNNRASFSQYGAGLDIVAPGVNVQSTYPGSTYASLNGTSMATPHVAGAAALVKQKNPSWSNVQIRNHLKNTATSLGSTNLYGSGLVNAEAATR
Experiment: protease storage stability in liquid formulation (Suc-AAPF-pNA substrate)
Format: biochemical
Conditions: base formulation I., 1.5 wt % component (a), storage at 37° C., 3 d
I'd appreciate it if you could supply protease activity, referring to reference formulation at time 0 values for the items below.
Reply with the value as a number alone.

Q: Tell me the measured protease activity, referring to reference formulation at time 0 of CCOC(=O)CC(O)(CC(=O)OCC)C(=O)OCC [A.1, Triethylcitrate] , please.
A: 97

Q: Suppose we examine the compound CCCOC(=O)CC(O)(CC(=O)OCCC)C(=O)OCCC [A.2, Tripropylcitrate] ; what protease activity, referring to reference formulation at time 0 value has been reported?
A: 100

Q: Data request, read-out protease activity, referring to reference formulation at time 0, for CCOC(=O)CC(CC(=O)OCC)(OC(C)=O)C(=O)OCC [A.5, Acetyltriethylcitrate]
A: 96

Q: Sample CCCCOC(=O)CC(CC(=O)OCCCC)(OC(C)=O)C(=O)OCCCC [A.4, Acetyltributylcitrate] — what was its protease activity, referring to reference formulation at time 0?
A: 100

* * *

molecular target: Savinase Ultra 16.0L (Lederbergia lenta, UniProt P29600); construct: purchased Sigma-Aldrich; assay: protease storage stability in liquid formulation (Suc-AAPF-pNA substrate); format: biochemical; conditions: base formulation I., 1.5 wt % component (a), storage at 37° C., T0
property_measured: protease activity, referring to reference formulation at time 0
Number only, please.

Q: Name the recorded protease activity, referring to reference formulation at time 0 for CCOC(=O)CC(O)(CC(=O)OCC)C(=O)OCC [A.1, Triethylcitrate] .
A: 100

Q: Could you tell me which protease activity, referring to reference formulation at time 0 is on file for CCOC(=O)CC(CC(=O)OCC)(OC(C)=O)C(=O)OCC [A.5, Acetyltriethylcitrate] ?
A: 98

Q: Find the recorded protease activity, referring to reference formulation at time 0 belonging to CCCOC(=O)CC(O)(CC(=O)OCCC)C(=O)OCCC [A.2, Tripropylcitrate] and report it.
A: 101

Q: Please look up its protease activity, referring to reference formulation at time 0: CCCCOC(=O)CC(CC(=O)OCCCC)(OC(C)=O)C(=O)OCCCC [A.4, Acetyltributylcitrate]
A: 102
